Quick reference for FLIPR % inhibition max among some binders
- subject-of-test: T1, Human CXCR2 (human, UniProt P25025 1-360)
- T1 sequence: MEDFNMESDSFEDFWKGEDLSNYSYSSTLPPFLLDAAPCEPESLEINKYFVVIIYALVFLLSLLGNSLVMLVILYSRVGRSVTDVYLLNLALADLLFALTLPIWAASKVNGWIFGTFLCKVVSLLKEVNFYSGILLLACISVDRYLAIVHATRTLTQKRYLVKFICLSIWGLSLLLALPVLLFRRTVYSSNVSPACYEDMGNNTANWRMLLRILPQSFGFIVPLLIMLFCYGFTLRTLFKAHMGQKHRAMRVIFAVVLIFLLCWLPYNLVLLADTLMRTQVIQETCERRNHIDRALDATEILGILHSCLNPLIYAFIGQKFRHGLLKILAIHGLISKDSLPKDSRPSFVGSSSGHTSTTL
- measurement-protocol: cell-based or functional assay
Express the result in % but write the number alone.

Check out these entries, answers already filled in.
163D2 (VHH, Tested as periplasmic extract (pAX50) and as purified His6-tagged protein (pAX100); also called 163D02; not shown: C-terminal c-myc tag and His6 tag coded by the vector) VHH: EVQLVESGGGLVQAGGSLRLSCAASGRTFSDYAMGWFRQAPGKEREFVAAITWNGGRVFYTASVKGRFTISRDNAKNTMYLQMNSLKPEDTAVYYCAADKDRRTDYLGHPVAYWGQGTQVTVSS | 100
54B12 (VHH, Tested as periplasmic extract (pAX50) and as purified His6-tagged protein (pAX100); also called 054B12; not shown: C-terminal c-myc tag and His6 tag coded by the vector) VHH: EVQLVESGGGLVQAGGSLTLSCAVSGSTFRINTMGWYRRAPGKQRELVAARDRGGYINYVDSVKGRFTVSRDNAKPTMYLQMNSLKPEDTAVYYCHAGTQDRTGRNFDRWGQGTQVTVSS | 100

(Q) // query FLIPR % inhibition max value for entry 97A9 (VHH, Tested as periplasmic extract (pAX50) and as purified His6-tagged protein (pAX100); also called 097A09; not shown: C-terminal c-myc tag and His6 tag coded by the vector) VHH: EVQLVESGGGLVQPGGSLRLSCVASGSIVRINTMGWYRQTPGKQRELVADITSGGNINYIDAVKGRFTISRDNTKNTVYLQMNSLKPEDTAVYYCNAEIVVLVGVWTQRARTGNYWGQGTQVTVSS
(A) 100
